- SYSTEM: T1, Chryseobacterium sp-62563 deamidase polypeptide (second polypeptide, deamidase domain), wildtype (Chryseobacterium sp-62563)
- T1 sequence: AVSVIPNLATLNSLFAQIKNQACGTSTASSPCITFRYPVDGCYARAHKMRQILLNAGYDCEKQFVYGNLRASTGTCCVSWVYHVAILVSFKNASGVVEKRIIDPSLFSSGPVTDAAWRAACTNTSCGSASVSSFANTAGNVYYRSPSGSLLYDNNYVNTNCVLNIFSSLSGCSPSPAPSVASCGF
- ASSAY: cell-based or functional assay
Listed here: items and their measured Leakage activity.
Give just the number in %; leave the unit off.

Previously resolved entries follow.
INSERT INTO measurements (binder, recorded_endpoint, unit_annotation, assay_result) VALUES
  ('Chryseobacterium sp-62563 propeptide Q43K (protein) NQDPNLVAKESNETAMKDFGKTVPVGIEKEDGKFKISFMVTAKPYEIKDSKENAAYISMIKTAVENETPIHVFLKANTNEIAKVDKATDDDIRYFKSVFTKEVKEENRK', 'Leakage activity', '%', 3),
  ('Chryseobacterium sp-62563 propeptide F38T (protein) NQDPNLVAKESNETAMKDFGKTVPVGIEKEDGKFKISTMVTAQPYEIKDSKENAAYISMIKTAVENETPIHVFLKANTNEIAKVDKATDDDIRYFKSVFTKEVKEENRK', 'Leakage activity', '%', 2),
  ('Chryseobacterium sp-62563 propeptide M16G (protein) NQDPNLVAKESNETAGKDFGKTVPVGIEKEDGKFKISFMVTAQPYEIKDSKENAAYISMIKTAVENETPIHVFLKANTNEIAKVDKATDDDIRYFKSVFTKEVKEENRK', 'Leakage activity', '%', 0),
  ('Chryseobacterium sp-62563 propeptide A42K (protein) NQDPNLVAKESNETAMKDFGKTVPVGIEKEDGKFKISFMVTKQPYEIKDSKENAAYISMIKTAVENETPIHVFLKANTNEIAKVDKATDDDIRYFKSVFTKEVKEENRK', 'Leakage activity', '%', 0),
  ('Chryseobacterium sp-62563 propeptide F99R (protein) NQDPNLVAKESNETAMKDFGKTVPVGIEKEDGKFKISFMVTAQPYEIKDSKENAAYISMIKTAVENETPIHVFLKANTNEIAKVDKATDDDIRYFKSVRTKEVKEENRK', 'Leakage activity', '%', 0),
  ('Chryseobacterium sp-62563 propeptide D18M (protein) NQDPNLVAKESNETAMKMFGKTVPVGIEKEDGKFKISFMVTAQPYEIKDSKENAAYISMIKTAVENETPIHVFLKANTNEIAKVDKATDDDIRYFKSVFTKEVKEENRK', 'Leakage activity', '%', 0),
  ('Chryseobacterium sp-62563 propeptide D90P (protein) NQDPNLVAKESNETAMKDFGKTVPVGIEKEDGKFKISFMVTAQPYEIKDSKENAAYISMIKTAVENETPIHVFLKANTNEIAKVDKATDPDIRYFKSVFTKEVKEENRK', 'Leakage activity', '%', 0),
  ('Chryseobacterium sp-62563 propeptide P69W (protein) NQDPNLVAKESNETAMKDFGKTVPVGIEKEDGKFKISFMVTAQPYEIKDSKENAAYISMIKTAVENETWIHVFLKANTNEIAKVDKATDDDIRYFKSVFTKEVKEENRK', 'Leakage activity', '%', 0),
  ('Chryseobacterium sp-62563 propeptide V64L (protein) NQDPNLVAKESNETAMKDFGKTVPVGIEKEDGKFKISFMVTAQPYEIKDSKENAAYISMIKTALENETPIHVFLKANTNEIAKVDKATDDDIRYFKSVFTKEVKEENRK', 'Leakage activity', '%', 0),
  ('Chryseobacterium sp-62563 propeptide P69Y (protein) NQDPNLVAKESNETAMKDFGKTVPVGIEKEDGKFKISFMVTAQPYEIKDSKENAAYISMIKTAVENETYIHVFLKANTNEIAKVDKATDDDIRYFKSVFTKEVKEENRK', 'Leakage activity', '%', 0);

Q) Data request, read-out Leakage activity, for Chryseobacterium sp-62563 propeptide Q43V (protein) NQDPNLVAKESNETAMKDFGKTVPVGIEKEDGKFKISFMVTAVPYEIKDSKENAAYISMIKTAVENETPIHVFLKANTNEIAKVDKATDDDIRYFKSVFTKEVKEENRK
A) 0
